The values you see were collected from patent US20220177587A1.

- TARGET: human PD-L1 (human) (UniProt Q9NZQ7)
- Sequence (Q9NZQ7 19-290): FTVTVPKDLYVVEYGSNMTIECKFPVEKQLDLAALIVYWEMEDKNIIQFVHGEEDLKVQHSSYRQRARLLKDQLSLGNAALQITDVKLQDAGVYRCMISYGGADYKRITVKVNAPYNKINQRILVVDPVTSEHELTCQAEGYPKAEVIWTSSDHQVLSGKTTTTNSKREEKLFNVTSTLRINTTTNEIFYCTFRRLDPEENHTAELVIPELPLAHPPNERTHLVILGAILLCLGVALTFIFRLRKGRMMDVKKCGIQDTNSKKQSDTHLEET
- ASSAY TEXT: flow cytometry, CHO cells expressing PD-L1
REPORTED ENDPOINT: MFI at 33.3 nM
Number plus unit, in that order.

Reported MFI at 33.3 nM, binder CD80 E35D/T41S/D46E/M47I/V68M/K93R/E95V IgV-Fc (Fc fusion) VIHVTKEVKEVATLSCGHNVSVEELAQTRIYWQKDKKMVLSMMSGEINIWPEYKNRTIFDITNNLSIMILALRPSDEGTYECVVLKYEKDAFRRVHLAEVTLSVKAD : ____
14800 MFI

Param item = CD80 H18Y/E35D/M47V/V68M/L85M IgV-Fc (Fc fusion) VIHVTKEVKEVATLSCGYNVSVEELAQTRIYWQKDKKMVLTMMSGDVNIWPEYKNRTIFDITNNLSIMILALRPSDEGTYECVVMKYEKDAFKREHLAEVTLSVKAD ; retrieve measured MFI at 33.3 nM.
16800 MFI

Entry CD80 T13R/Q33R/E35D/M47L/V68M/L85M IgV-Fc (Fc fusion) VIHVTKEVKEVARLSCGHNVSVEELAQTRIYWRKDKKMVLTMMSGDLNIWPEYKNRTIFDITNNLSIMILALRPSDEGTYECVVMKYEKDAFKREHLAEVTLSVKAD has what MFI at 33.3 nM?
18900 MFI

# lookup: MFI at 33.3 nM of CD80 H18Y/E35D/V68M/T79M/L85M IgV-Fc (Fc fusion) VIHVTKEVKEVATLSCGYNVSVEELAQTRIYWQKDKKMVLTMMSGDMNIWPEYKNRTIFDITNNLSIMILALRPSDEGMYECVVMKYEKDAFKREHLAEVTLSVKAD
14900 MFI
